Where do these numbers come from? They come from ChEMBL document CHEMBL3988442.

test system: Wolbachia pipientis; assay: Anti-Wolbachia Cell-Based Screen; assay type: functional; set-up: scale not given: in the data most compounds retested in dose-response had high values; conditions: 5 µM
About 13,000 (27%) of roughly 48,000 compounds showed an effect of 50% or more. The list shows a part of the results.
measured-attribute: Percent Effect (%)
Return type: number; implicit unit %.

Give the measured Percent Effect of COCc1cnc2n1CCN(C1CCCC1)C2C.O=C(O)C(F)(F)F (stereo not given) . 11.21

Give the measured Percent Effect of CC1c2ncc(Cn3cccn3)n2CCN1S(C)(=O)=O.O=C(O)C(F)(F)F (stereo not given) . 89.72

Give the measured Percent Effect of "O=C(NC1CC1)N1CCn2c(Cn3cccn3)cnc2C1.O=C(O)C(F)(F)F" . 5.205

Give the measured Percent Effect of "Cc1noc(C)c1CN1CCc2ncc(Cn3cccn3)n2CC1.O=C(O)C(F)(F)F" . -5.332

Give the measured Percent Effect of "O=C(O)C(F)(F)F.O=C(O)C(F)(F)F.c1cnn(Cc2cnc3n2CCN(CC2CCCCC2)C3)c1" . -2.959

----------
test system: Wolbachia pipientis; assay: Anti-Wolbachia Cell-Based Screen; format: functional; design: scale not given: in the data most compounds retested in dose-response had high values; details: 5 µM
In all, about 48,000 compounds went through this assay and about 13,000 (27%) showed an effect of 50% or more. The list shows a part of the results.
measured-attribute: Percent Effect (%)
Return type: number; implicit unit %.

Give the measured Percent Effect of "Cc1noc(C)c1CN(C)C(=O)NC1CCN(C2CC2)CC1" . -39.67

Give the measured Percent Effect of "O=C(O)C(=O)O.c1cnc(-c2noc(C3CN(Cc4ccc5c(c4)CCO5)C3)n2)cn1" . 6.909

Give the measured Percent Effect of Cc1ccsc1C(=O)NCC1COCc2c(C)nnn2C1 (configuration not stated) . -4.017

Give the measured Percent Effect of Cc1ccc(CNC(=O)N2CCCC(NS(C)(=O)=O)C2)cc1 (configuration not stated) . 112.9

Give the measured Percent Effect of "CN1CCC(c2nnc(CN3CCC(O)CC3)n2C)CC1" . -6.188

Give the measured Percent Effect of "CN(C)C(=O)c1n[nH]c2c1CCN(Cc1nccs1)C2" . 9.734

Give the measured Percent Effect of O=C(O)C(F)(F)F.O=S(=O)(C1CC1)N1CCC2(CC1)CC(Oc1cccnc1)CO2 (configuration not stated) . 3.761

Give the measured Percent Effect of O=C(O)C(F)(F)F.O=C(O)C(F)(F)F.c1cncc(C2COC3(CCN(CC4CCOCC4)CC3)C2)c1 (configuration not stated) . 107.8

Give the measured Percent Effect of Fc1ccc(N2CCC3(CC2)CC(OCc2cccnc2)CO3)cc1.O=C(O)C(F)(F)F (configuration not stated) . -13.34

Give the measured Percent Effect of "CC(C)N1C[C@@H](CO)[C@H](c2ccccc2)S1(=O)=O" . 103.9

Give the measured Percent Effect of "O=S1(=O)[C@@H](c2ccccc2)[C@H](CO)CN1c1ccccc1" . 106.6

Give the measured Percent Effect of COCCN1CCC2(CC1)CC(Nc1ccc(C)nn1)CO2.O=C(O)C(F)(F)F (configuration not stated) . -23.59

Give the measured Percent Effect of "N#Cc1ccc(CN(CC(N)=O)C2CCCC2)c(Br)c1" . -1.736

Give the measured Percent Effect of COC1CCCN(C(=O)NCc2ccc(C(=O)N(C)C(C)C)cc2)C1 (configuration not stated) . -8.588

Give the measured Percent Effect of CC(C#N)CNS(=O)(=O)c1ccc(Br)c(F)c1 (configuration not stated) . 3.318

Give the measured Percent Effect of CS(=O)(=O)NC1CCN(C(=O)c2ccc(Br)o2)C1 (configuration not stated) . -2.031

Give the measured Percent Effect of "CCCc1nnsc1C(=O)NCC1CCN(S(C)(=O)=O)CC1" . -2.324

Give the measured Percent Effect of O=C(NC1COC2(CCN(CC3CCC3)CC2)C1)c1ccccn1.O=C(O)C(F)(F)F (configuration not stated) . 9.161

Give the measured Percent Effect of "COc1ccc(C(=O)NCc2cc(N3CCOCC3)ncn2)o1" . -2.324

Give the measured Percent Effect of Fc1cnc(N2CCC3(CC2)CC(OCc2cccnc2)CO3)nc1.O=C(O)C(F)(F)F.O=C(O)C(F)(F)F (configuration not stated) . -2.608

Give the measured Percent Effect of "Cc1n[nH]c(=O)c2c(NC(=O)CN3CCOCC3)oc(C)c12" . 3.045

Give the measured Percent Effect of CCN1CCCC1CN(Cc1cc[nH]n1)CC1CCN(CCOC)CC1 (configuration not stated) . -0.05242
